Could you please report measured normalized growth for the items listed next?
assay: chemical genetic growth profiling, strain panel (AID 1159580);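 also: tested at 20 µM; growth read once vehicle control cultures reached saturation at 30 °C; 1 = growth at the plate median or of vehicle wells; lower values mean less growth of the strain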; details: S. cerevisiae deletion strains, growth OD, locus YGR078C, strain PAC10, active compounds read low
Among all 5,500 compounds or so, about 2,000 (36%) were called active. Not shown: some 18% with an inconclusive outcome. The list shows a part of the results.
Give bare numbers.

Problem: normalized growth for CC(=O)c1cc(CC=C(C)C)c(O)c(CC=C(C)C)c1 ?
Solution: 0.922

Hey, can you go through the list below and give me normalized growth for every item?
1. CC(=O)c1ccc(O)c(CC=C(C)C)c1
2. C=C1c2cccc(O)c2C(O)=C2C(=O)[C@]3(O)C(O)=C(C(N)=O)C(=O)[C@@H](N(C)C)[C@@H]3[C@@H](O)[C@H]12
3. CC(CCc1ccccc1)NCC(O)c1ccc(O)c(C(N)=O)c1 (centres undefined)
4. C[N+]1(C)CCN(c2ccccc2)CC1
5. CCN1CCN(C(=O)NC(C(=O)N[C@@H]2C(=O)N3[C@@H]2SC(C)(C)[C@@H]3C(=O)O)c2ccccc2)C(=O)C1=O (some centres undefined)
6. CN(C)c1ccc(O)c2c1C[C@H]1C[C@H]3[C@H](N(C)C)C(=O)C(C(N)=O)=C(O)[C@@]3(O)C(=O)C1=C2O
7. CN(C)[C@@H]1C(=O)C(C(N)=O)=C(O)[C@@]2(O)C(=O)C3=C(O)c4c(O)cccc4[C@@](C)(O)[C@H]3[C@H](O)[C@@H]12

Solution:
1. 0.936
2. 0.928
3. 0.985
4. 1
5. 1.02
6. 0.966
7. 1

Problem: normalized growth for CN(C)[C@@H]1C(=O)C(C(N)=O)=C(O)[C@@]2(O)C(=O)C3=C(O)c4c(O)ccc(Cl)c4[C@@H](O)[C@H]3C[C@@H]12 ?
Solution: 0.989
